# credit: patent US20230083012A1

Entries and their CC50 at 6 days
Test: Cytotoxicity determination in HepG2.2.15 cells (CCK-8 cell viability)
Format: cell-based
Conditions: human, 6 days treatment, CCK-8 assay, highest concentration 100 uM

CCOC(=O)C1=C(CN2CC(F)(F)[C@@H]3[C@H]2CN(C(C)C)N3CCC(C)(C)C(=O)O)NC(c2nccs2)=N[C@H]1c1cccc(F)c1C (single isomer, unassigned) [Compound 89] : > 3.12 µM

Prompt: Requested read-out: CC50 at 6 days. Entry: CCOC(=O)C1=C(CN2CC(F)(F)[C@@H]3[C@H]2CN(C)N3CC(C)(C)C(=O)O)NC(c2nccs2)=N[C@@H]1c1ccc(F)nc1C (single isomer, unassigned) [Compound 97]
Response: > 100 µM

Prompt: Next up: COC(=O)C1=C(CN2CC(F)(F)[C@H]3[C@@H]2CCN3CCC(C)(C)C(=O)O)NC(c2nccs2)=N[C@H]1c1ccc(F)c(F)c1Cl (single isomer, unassigned) [Compound 126]
Response: 27.2 µM
